Molecular target: VEGF-165 (UniProt P15692-4 27-191)
Sequence (P15692 other isoform, or with tags, fused parts or gaps): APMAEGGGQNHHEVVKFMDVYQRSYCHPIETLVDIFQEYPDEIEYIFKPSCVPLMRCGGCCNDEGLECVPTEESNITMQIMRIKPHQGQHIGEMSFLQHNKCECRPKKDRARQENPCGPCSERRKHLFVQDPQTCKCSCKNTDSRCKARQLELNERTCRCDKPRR
Test: EMSA; PBS + 0.005% Tween 20, pH 7.4 (+50 mM KCl for aptamer B); 2.5 nM aptamer heated at 90 C and cooled, 1 h incubation (temperature not stated, RT?); 7.5% PAGE in 0.5x TB pH 8.3 at 4 C
Details: protein: recombinant; tags: His-tag; chain copies: 2; label: 5' fluorescein
Please provide measured pKd for the entries that follow.
Give bare numbers, as −log10 of the molar value.

- CAATTGGGCCCGTCCGTATGGTGGGT (structured_DNA) [fC (SL2-B)]: 7.42
- CT60C (structured_DNA) DNA: CAATTGGGCCCGTCCGTATGGTGGGTTTTTTTTTTTTTTTTTTTTTTTTTTTTTTTTTTTTTTTTTTTTTTTTTTTTTTTTTTTTTCAATTGGGCCCGTCCGTATGGTGGGT: 7.65
- AT60A (structured_DNA) DNA: GCCCGTCTTCCAGACAAGAGTGCAGGGCTTTTTTTTTTTTTTTTTTTTTTTTTTTTTTTTTTTTTTTTTTTTTTTTTTTTTTTTTTTTGCCCGTCTTCCAGACAAGAGTGCAGGGC: 8.15

Inquiry: Query (binder): GCCCGTCTTCCAGACAAGAGTGCAGGGC (structured_DNA) [fA (+5'GC+3'C)] ; field requested: pKd
Reply text: 8.00
